# Tested on: NCI-H650 (Lung Adenocarcinoma);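 also: after 72 h of two-drug dosing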
# PROTOCOL_TEXT: Bliss excess, mean over the matrix (fraction); higher = more synergy
Below: a set of entries, each annotated with reported Bliss excess.
Respond numerically, and do not add a unit to the figure.

compound="Cn1cnc2c(F)c(Nc3ccc(Br)cc3Cl)c(C(=O)NOCCO)cc21 [Selumetinib] + CCN(CCO)CCCOc1ccc2c(Nc3cc(CC(=O)Nc4cccc(F)c4)[nH]n3)ncnc2c1 [AZD2811] (first compound max 10 µM, 7x7, partner max 1 µM)" observed_value=0.0056

Next, consider the following compound.
# Bliss excess measured on NCI-H650 (Lung Adenocarcinoma) for item Cc1c2c(nn1C)CSCc1cc(n(C)n1)CSc1cc(c3ccccc3c1)OCCCc1c(C(=O)O)n(C)c3c-2c(Cl)ccc13 [AZD5991] + Cn1cnc2c(F)c(Nc3ccc(Br)cc3Cl)c(C(=O)NOCCO)cc21 [Selumetinib] (first compound max 1 µM, 7x7, partner max 3 µM) = 0.0222
